system: Saccharomyces cerevisiae; experiment: protein stability index of tFT-peptide fusion (C-terminal peptide) (PSI (0-1 scale)); higher = more stable (slower turnover); conditions: genetic background: wild type; temperature: 30 C
Hi all, reminder that labels come from protein stability index, split as I = under 0.6, II = from 0.6 up to 0.7, III = 0.7 and over

Prompt line: Sort RRTDHQRAVREI into one of the categories.
Response line: III

Prompt line: Sort AHGAGCGGRRVA into one of the categories.
Response line: III

Prompt line: Sort ISFQFFVCLCAR into one of the categories.
Response line: I

Prompt line: Sort VWRRCVPGPASP into one of the categories.
Response line: II

Prompt line: Sort YGSQAYAIDSKP into one of the categories.
Response line: II

Prompt line: Sort RSSDFASDRGWT into one of the categories.
Response line: II

Prompt line: Sort SPILRFPPPCFL into one of the categories.
Response line: II

Prompt line: Sort HLPPLHRLSPPI into one of the categories.
Response line: II

Prompt line: Sort PPPPPPPALPSL into one of the categories.
Response line: II

Prompt line: Sort ECLRLTTKKKIN into one of the categories.
Response line: I

Prompt line: Sort VQVLVAIMDGRM into one of the categories.
Response line: I

Prompt line: Sort WGGGGGGDCVGA into one of the categories.
Response line: II

Prompt line: Sort HLVLIHPTQTLN into one of the categories.
Response line: II

Prompt line: Sort CLCFFMSILWWV into one of the categories.
Response line: I

Prompt line: Sort FLSCSRRPLRCW into one of the categories.
Response line: I

Prompt line: Sort GLVWGGGGTVGG into one of the categories.
Response line: III

Prompt line: Sort CFFSLLLLIFSV into one of the categories.
Response line: I

Prompt line: Sort LTLCRSPMSLRA into one of the categories.
Response line: II

Prompt line: Sort VSAPTHVSRVTQ into one of the categories.
Response line: II

---

For each entry below, report its protein stability index value.
test system: Saccharomyces cerevisiae; assay: protein stability index of tFT-peptide fusion (C-terminal peptide) (PSI (0-1 scale)); higher = more stable (slower turnover); details: genetic background: wild type; temperature: 30 C;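 also: PSI is a weighted mean of sequencing reads over stability bins, variants kept only with over 10 reads, mCherry proximal and sfGFP distal, peptide attached via GGGS linker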
Lab note: jot the number down without any unit.

Prompt line: Which protein stability index is reported for this sequence? VLSLLVLLLSLP
Response line: 0.614

Prompt line: Which protein stability index is reported for this sequence? LPWCSTLEIRER
Response line: 0.694

Prompt line: Which protein stability index is reported for this sequence? VYHMFHLGPSFD
Response line: 0.705

Prompt line: Which protein stability index is reported for this sequence? LSALGGVLWWWC
Response line: 0.616

Prompt line: Which protein stability index is reported for this sequence? GYPSLYCLSVFM
Response line: 0.616

Prompt line: Which protein stability index is reported for this sequence? GLGLAFRGSFVL
Response line: 0.69

Prompt line: Which protein stability index is reported for this sequence? FRAPYWCSRVFG
Response line: 0.715

Prompt line: Which protein stability index is reported for this sequence? DAVWTRGGEGVW
Response line: 0.718

Prompt line: Which protein stability index is reported for this sequence? YSILYRMQNSKI
Response line: 0.696

Prompt line: Which protein stability index is reported for this sequence? KEKKENKRKNTT
Response line: 0.699

Prompt line: Which protein stability index is reported for this sequence? MCDSFFGHSVRN
Response line: 0.699

Prompt line: Which protein stability index is reported for this sequence? SPAPRAPRGICL
Response line: 0.706

Prompt line: Which protein stability index is reported for this sequence? RSHSTSSETNFV
Response line: 0.688

Recorded values, source the supplement of paper PMC10724198.
